# STUDY_SYSTEM: human secretin receptor (hSCTR) (human, UniProt P47872 23-440)
# Sequence (P47872 23-440): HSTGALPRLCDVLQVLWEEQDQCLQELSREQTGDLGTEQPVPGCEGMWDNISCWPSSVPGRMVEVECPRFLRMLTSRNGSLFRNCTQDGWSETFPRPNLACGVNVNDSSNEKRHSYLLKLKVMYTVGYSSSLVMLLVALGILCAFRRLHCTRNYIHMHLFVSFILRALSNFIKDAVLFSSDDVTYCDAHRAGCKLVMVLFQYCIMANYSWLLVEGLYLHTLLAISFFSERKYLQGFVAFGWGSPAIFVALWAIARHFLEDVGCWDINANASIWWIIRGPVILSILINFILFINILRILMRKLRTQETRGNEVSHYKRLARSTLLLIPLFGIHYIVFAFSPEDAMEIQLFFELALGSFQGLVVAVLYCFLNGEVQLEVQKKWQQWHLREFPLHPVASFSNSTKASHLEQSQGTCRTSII
# MEASUREMENT_DESCRIPTION: cell-based or functional assay
Numbered stars: 1 amine (or outer) side, 2 acyl side, 3 side chain; on linkers, the order of the positions; unused ones are H or OH. Square brackets hold non-standard residues; d marks the D form. Side chains are listed from the residue outwards. Ends that are not written are not given here. * marks the point of attachment. C20 diacid = O=C(O)CCCCCCCCCCCCCCCCCCC(=O)*; γGlu = O=C(O)[C@H](CCC(=O)[*:2])N[*:1]; AEEA = NCCOCCOCC(=O)O; Aib = CC(C)(N)C(=O)O
PARAMETER_MEASURED: pEC50 hSCTR

[[record]]
binder = "H[Aib]EGTFTSDVSRLK([AEEA-AEEA-γGlu-C20 diacid])EFAAEQRFLEHLV-NH2 [SEQ ID NO: 72]"
readout_value = "6 -log M"

[[record]]
binder = "H[Aib]EGTFTSDVSRLK([AEEA-AEEA-γGlu-C20 diacid])ETAATQRFLEHLV-NH2 [SEQ ID NO: 26]"
readout_value = "7.2 -log M"


For the binder H[Aib]EGTFTSDVSRLK([AEEA-AEEA-γGlu-C20 diacid])ETAAQQRFLEHLV-NH2 [SEQ ID NO: 21] , give its reported pEC50 hSCTR.
6.7 -log M

Entry H[Aib]IGTFTSDVSYLK([AEEA-AEEA-γGlu-C20 diacid])EEA[Aib]LQRFLEHLV-NH2 [SEQ ID NO: 175] needs its pEC50 hSCTR filled in; supply it.
5.1 -log M

Assign pEC50 hSCTR to the following record: H[Aib]EGTFTSDVSELK([AEEA-AEEA-γGlu-C20 diacid])E[Aib]AATQRFLEHLV-NH2 [SEQ ID NO: 82]
7 -log M

Quote pEC50 hSCTR reported for H[Aib]EGTFTSDVSELKELAASQRFLEHLV-NH2 (not fully specified (residue 14)) [SEQ ID NO: 12] please.
6.2 -log M

Respond only with pEC50 hSCTR recorded for H[Aib]EGTFTSDVSYLFEEA[Aib]LQRFLEK([AEEA-AEEA-γGlu-C20 diacid])LV-NH2 [SEQ ID NO: 176]
5.5 -log M

Look up and report measured pEC50 hSCTR for this entry: H[Aib]EGTFTSDVSELK([AEEA-AEEA-γGlu-C20 diacid])EFAAEQRFLEHLV-NH2 [SEQ ID NO: 31]
5.2 -log M

Return pEC50 hSCTR for the following binder: H[Aib]EGTFTSDVSELK([AEEA-AEEA-γGlu-C20 diacid])ELAAEQRFLEHLV-NH2 [SEQ ID NO: 36]
6.5 -log M

Give the reported pEC50 hSCTR for this binder. H[Aib]EGTFTSDVSYLKEEA[Aib]VQRFLEHLV-NH2 (not fully specified (residue 14)) [SEQ ID NO: 161]
6.8 -log M
